test: Mouse pharmacokinetic study, 5 mg/kg I.P. cassette; conditions: male, CD-1, mouse, brain, ip
observation.type: concentration at 30 min
Your reply should be a number followed by the unit it is expressed in.

Completed entries (count: 2):
compound	concentration at 30 min
CC(C)N1CCN(c2ccc(Nc3nc(OCC4CC4)c4cc[nH]c4n3)cc2)CC1	3920 ng/mL
CN1CC2(C1)CN(c1ccc(Nc3nc(OCC4CC4(F)F)c4cc[nH]c4n3)cc1)C2 (stereo not drawn)	405 ng/mL

Find the recorded concentration at 30 min belonging to "CC(C)N1CCN(c2ccc(Nc3nc(OCc4ncnn4C)c4cc[nH]c4n3)cc2)CC1.O=CO" and report it.
54 ng/mL
